Recorded relative integration efficiency (log2) for the following variants
B1: library; a variant is named by its letters at N, in order (parent)
chain: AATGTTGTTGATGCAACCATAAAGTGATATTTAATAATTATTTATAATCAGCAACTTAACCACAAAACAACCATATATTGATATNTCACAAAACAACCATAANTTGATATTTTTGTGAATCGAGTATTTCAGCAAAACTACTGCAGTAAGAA

- Variants of: B1
- experiment.summary: relative integration efficiency (T-LR orientation) vs wild-type transposon end (log2 (normalized fold change)); transposon end mutated: left end; higher = more efficient transposition
- conditions.used: with VchCAST RNA-guided transposition machinery (E. coli BL21(DE3) host, lacZ target)

> print(dat)
       variant.string                       property.measured  result
1  CG A2C T3G G4T T5G  relative integration efficiency (log2)  -0.014
2             CG C52A  relative integration efficiency (log2)   0.484
3            CG T116C  relative integration efficiency (log2)   0.235

Would you mind telling me what relative integration efficiency (log2) value was observed for TG A23G G24T A33T T76A A77G C87T ?
0.312

Could you do the same for CG T35G A36C A37C T38G , please?
0.209

Could you do the same for CG T31A , please?
0.0948

Could you do the same for CC A101T A102T T104A , please?
-0.0376

Could you do the same for CG T116G , please?
0.159

Could you do the same for CG A29C , please?
-0.501
